System: PPARg:RXRa IVT, anti-PPARg (NR concentration 270 nM, RXRa partner concentration 90 nM)
Assay: PBM binding z-score (relative to random genomic background probes); higher = stronger binding; sequences stand for … in GC…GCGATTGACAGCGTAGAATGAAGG
Here the recorded PBM binding z-score is given for each entry.

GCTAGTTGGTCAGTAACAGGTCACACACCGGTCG
1.57
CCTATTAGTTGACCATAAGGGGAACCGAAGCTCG
0.106
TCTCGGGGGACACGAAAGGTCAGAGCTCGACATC
4.33
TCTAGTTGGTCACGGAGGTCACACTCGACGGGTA
4.57
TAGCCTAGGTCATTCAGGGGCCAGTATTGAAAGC
2.66

The sequence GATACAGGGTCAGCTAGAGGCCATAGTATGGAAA on PPARg:RXRa IVT, anti-PPARg (NR concentration 270 nM, RXRa partner concentration 90 nM): PBM binding z-score was 2.33

====

Test system: RARb homodimer (NR concentration 270 nM)
Assay: PBM binding z-score (relative to random genomic background probes); higher = stronger binding; sequences stand for … in GC…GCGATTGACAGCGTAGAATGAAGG
Class boundaries, taken from values of PBM binding z-score, are as follows: 0 (below 0.9), 1 (0.9 to below 3), 2 (3 or more)

Would you please look over these solved cases?
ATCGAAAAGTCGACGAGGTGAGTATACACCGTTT
0
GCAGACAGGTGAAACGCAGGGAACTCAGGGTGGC
0
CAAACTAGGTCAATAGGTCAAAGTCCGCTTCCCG
2
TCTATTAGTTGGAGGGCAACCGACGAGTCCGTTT
1
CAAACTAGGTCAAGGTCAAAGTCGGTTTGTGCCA
2
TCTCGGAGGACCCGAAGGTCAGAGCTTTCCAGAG
1
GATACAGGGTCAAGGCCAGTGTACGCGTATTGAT
2
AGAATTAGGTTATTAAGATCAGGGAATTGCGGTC
0

For the record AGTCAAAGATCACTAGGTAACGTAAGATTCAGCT , report the class its PBM binding z-score corresponds to. 0

For the record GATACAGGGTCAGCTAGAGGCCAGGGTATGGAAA , report the class its PBM binding z-score corresponds to. 2

For the record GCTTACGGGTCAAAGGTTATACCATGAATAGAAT , report the class its PBM binding z-score corresponds to. 2

For the record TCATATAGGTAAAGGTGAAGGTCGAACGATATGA , report the class its PBM binding z-score corresponds to. 1

For the record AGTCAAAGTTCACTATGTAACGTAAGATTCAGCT , report the class its PBM binding z-score corresponds to. 2

For the record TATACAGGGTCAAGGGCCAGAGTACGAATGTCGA , report the class its PBM binding z-score corresponds to. 2

For the record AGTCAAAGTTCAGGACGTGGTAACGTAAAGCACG , report the class its PBM binding z-score corresponds to. 2

For the record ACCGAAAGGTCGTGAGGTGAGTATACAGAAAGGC , report the class its PBM binding z-score corresponds to. 1

For the record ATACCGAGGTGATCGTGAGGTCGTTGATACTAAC , report the class its PBM binding z-score corresponds to. 1

For the record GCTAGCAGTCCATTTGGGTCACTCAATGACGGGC , report the class its PBM binding z-score corresponds to. 1

For the record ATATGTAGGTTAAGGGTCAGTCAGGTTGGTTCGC , report the class its PBM binding z-score corresponds to. 2

====

Here the recorded PBM binding z-score is given for each entry.
Tested on: FXR:RXRa (NR concentration 270 nM, RXRa partner concentration 90 nM)
Experiment: PBM binding z-score (relative to random genomic background probes); higher = stronger binding; sequences stand for … in GC…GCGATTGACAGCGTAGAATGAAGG
Please reply with the value in numeric form only.

// solved cases for PBM binding z-score follow
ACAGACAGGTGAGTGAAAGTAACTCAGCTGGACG
0.0251
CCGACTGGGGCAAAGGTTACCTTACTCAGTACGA
1.37
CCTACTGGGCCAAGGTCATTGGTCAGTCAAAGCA
3.51

Lab note: measured PBM binding z-score of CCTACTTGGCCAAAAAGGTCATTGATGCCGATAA was 4.39

====

System: VDR:RXRa (NR concentration 270 nM, RXRa partner concentration 90 nM)
Test: PBM binding z-score (relative to random genomic background probes); higher = stronger binding; sequences stand for … in GC…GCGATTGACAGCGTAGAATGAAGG
Here the recorded PBM binding z-score is given for each entry.
Please reply with the value in numeric form only.

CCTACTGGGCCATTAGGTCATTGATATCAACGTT
1.47
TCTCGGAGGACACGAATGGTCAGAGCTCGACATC
-0.0797
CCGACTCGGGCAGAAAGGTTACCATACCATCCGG
0.699
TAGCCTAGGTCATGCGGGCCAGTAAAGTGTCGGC
2.75
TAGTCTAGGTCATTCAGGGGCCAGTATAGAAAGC
3.15

Lab note: measured PBM binding z-score of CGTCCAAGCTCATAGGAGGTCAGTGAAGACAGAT was 1.69

Lab note: measured PBM binding z-score of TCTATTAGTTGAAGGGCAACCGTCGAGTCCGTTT was 0.884

Lab note: measured PBM binding z-score of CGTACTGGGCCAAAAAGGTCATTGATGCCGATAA was 5.04

Lab note: measured PBM binding z-score of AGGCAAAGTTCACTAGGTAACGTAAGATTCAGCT was 3.88

Lab note: measured PBM binding z-score of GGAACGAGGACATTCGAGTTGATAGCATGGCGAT was 0.922

Lab note: measured PBM binding z-score of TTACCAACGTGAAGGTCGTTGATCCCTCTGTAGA was 1.09

====

Tested on: PPARg DBDmut:RXRa IVT, anti-PPARg (DBD mutation: PPARg1 K132A/R137A, NR concentration 270 nM, RXRa partner concentration 90 nM)
Assay: PBM binding z-score (relative to random genomic background probes); higher = stronger binding; sequences stand for … in GC…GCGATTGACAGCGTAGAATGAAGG
Class boundaries, taken from values of PBM binding z-score, are as follows: b0 (below -0.8), b1 (-0.8 to below 0.8), b2 (0.8 or more)

Would you please look over these solved cases?
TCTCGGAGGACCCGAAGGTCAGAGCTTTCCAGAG
b0
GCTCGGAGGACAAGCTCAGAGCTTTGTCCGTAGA
b1
CAAACTAGGTCACGAAAGGTCAAAGTCGAATGAC
b2
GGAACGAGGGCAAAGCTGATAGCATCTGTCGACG
b1
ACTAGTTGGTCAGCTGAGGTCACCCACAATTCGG
b1

Please examine the following record next.
For the record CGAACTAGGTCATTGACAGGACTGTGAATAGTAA , report the class its PBM binding z-score corresponds to. b2

====

Test system: RXRa homodimer (NR concentration 180 nM)
Assay: PBM binding z-score (relative to random genomic background probes); higher = stronger binding; sequences stand for … in GC…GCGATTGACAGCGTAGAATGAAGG
Here the recorded PBM binding z-score is given for each entry.
Please reply with the value in numeric form only.

Lab note: measured PBM binding z-score of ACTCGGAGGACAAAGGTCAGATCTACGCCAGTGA was 4.78

Lab note: measured PBM binding z-score of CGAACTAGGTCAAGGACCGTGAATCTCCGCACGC was 2.32

Lab note: measured PBM binding z-score of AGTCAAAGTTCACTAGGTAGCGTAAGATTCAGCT was 3.68

Lab note: measured PBM binding z-score of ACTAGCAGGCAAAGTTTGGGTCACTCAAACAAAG was 0.711

Lab note: measured PBM binding z-score of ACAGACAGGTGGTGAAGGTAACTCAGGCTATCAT was 0.0945

Lab note: measured PBM binding z-score of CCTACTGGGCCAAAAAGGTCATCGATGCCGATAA was 5.25

Lab note: measured PBM binding z-score of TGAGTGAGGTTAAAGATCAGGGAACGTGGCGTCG was 4.01

Lab note: measured PBM binding z-score of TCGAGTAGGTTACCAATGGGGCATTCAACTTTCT was 1.01

====

Test system: PPARg:RXRa DBDmut IVT, anti-RXR (DBD mutation: RXRa K156A/R161A, NR concentration 270 nM, RXRa partner concentration 90 nM)
Assay: PBM binding z-score (relative to random genomic background probes); higher = stronger binding; sequences stand for … in GC…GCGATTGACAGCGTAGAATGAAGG
Threshold rule: PBM binding z-score greater than or equal to 3 is satisfied; below that, not satisfied.

ACTATTAGTTGAGACGAGGTCAACCGATAGGTTG
not satisfied
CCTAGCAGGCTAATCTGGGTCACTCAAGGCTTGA
satisfied
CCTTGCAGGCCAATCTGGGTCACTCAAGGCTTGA
satisfied

Please indicate if the recorded PBM binding z-score for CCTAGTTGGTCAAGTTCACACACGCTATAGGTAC meets or exceeds 3. not satisfied

Please indicate if the recorded PBM binding z-score for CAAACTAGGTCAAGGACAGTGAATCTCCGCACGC meets or exceeds 3. satisfied

Please indicate if the recorded PBM binding z-score for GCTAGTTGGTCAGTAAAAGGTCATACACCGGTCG meets or exceeds 3. not satisfied

Please indicate if the recorded PBM binding z-score for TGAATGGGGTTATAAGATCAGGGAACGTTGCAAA meets or exceeds 3. not satisfied

Please indicate if the recorded PBM binding z-score for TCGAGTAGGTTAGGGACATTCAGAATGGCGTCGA meets or exceeds 3. not satisfied

Please indicate if the recorded PBM binding z-score for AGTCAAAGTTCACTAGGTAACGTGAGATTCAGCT meets or exceeds 3. not satisfied

Please indicate if the recorded PBM binding z-score for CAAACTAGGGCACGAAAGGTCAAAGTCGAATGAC meets or exceeds 3. satisfied

Please indicate if the recorded PBM binding z-score for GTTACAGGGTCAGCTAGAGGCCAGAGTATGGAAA meets or exceeds 3. not satisfied

Please indicate if the recorded PBM binding z-score for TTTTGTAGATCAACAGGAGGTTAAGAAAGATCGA meets or exceeds 3. not satisfied
